Measured on: HKU5 HR2 peptide (HKU5), A3EXD0
Sequence (A3EXD0 1228-1249 limits assumed): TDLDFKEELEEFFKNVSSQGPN
Run description: peptide ELISA
Value kind: EC50 (µg/mL)
Enter your answer as a number in µg/mL; do not include the unit.

hr2.024 (antibody, V domains shown) VH: QVQLVQSGAEVKKPGASVKVSCKASEDIFTDSYLHWVRQAPGQGLEWMGIITPSGDKTFYAQQFQGRLTMTRDPSTNTLYMFLSGLRSDDTAMYFCARQAEKGGWDYWGHGTLVTVSS VL: EIVLTQSPGTLSLSPGQRATLSCRSSQTITSNYLAWYQQRPGQAPRLLIYGASIRATGIPDRFSGSGSGTDFTLTISRLEPEDFAVYYCQQYGSSPPTFIFGPGTKVDIK :: 0.048
hr2.019 (antibody, V domains shown) VH: EVQLVESGGGLVKPGGSLRLSCAASGSSVIDVWMNWVRQAPGKGLEWVGRIKTKASGAATDYGAPVKGRFTISRDDSKNLSYLQMNSLRAEDTGIYYCTTSPLPNFDYWGRGTLVTVSS VL: DIVMTQSPDFLAVSLGETATINCRSSQSVFYFANNKNYLAWYQQKPGQPPKLLIYWASKRESGVPDRFSGSGSGTDFTLTISSLQAEDVATYYCQQYSSPAITFGPGTKVDIK :: 0.0505

Next binder, EC50 to be filled in.
Lookup: So what does the record say about EC50 for hr2.016 (antibody, V domains shown) VH: EVQLLESGGGLVQPGGSLRLSCAASGFMFSKYAMTWVRQTPGKGLEWVSVISGGGGSTYYADSVKGRFTISRDNSKNTLYLQMNSLRAEDTAVYYCAKLLVVFVIDYWGQGALVTVSS VL: EIVLTQSPGTLSLSPGERATLFCRASQSVSSNLAWYQQKPGRAPRLLISGASSRATGIPDRFSGSGSGTDFTLTISRLEPEDFAVYYCQQYGSSPPTFGQGTKVEIK ?
Found: 0.0256
